Target: 5-HT2A (Homo sapiens)
Assay: Serotonin 5-HT2A in vitro cellular IPOne agonism assay
Details: CHO-K1 cells, IPOne HTRF, 60 min
pEC50: −log10 of the molar value.
Entries and their pEC50 values follow.
measured attribute: pEC50

>>> print(df.to_string())
                                   smi  value_observed
0          COc1ccc2c3c(n(C)c2n1)CCNCC3    7.00 to 8.00
1          Brc1ccc2c3c([nH]c2n1)CCNCC3    7.00 to 8.00
2  COc1ccc2c3c(n(C)c2n1)CCN(C1COC1)CC3    5.00 to 6.00
3       COc1cc2c3c([nH]c2cn1)CCN(C)CC3          < 5.00
4          Cn1c2c(c3cc(Cl)cnc31)CCNCC2    6.00 to 7.00
5  Brc1ccc2c3c([nH]c2n1)CCN(C1COC1)CC3    5.00 to 6.00
6      Cn1c2c(c3cccnc31)CCN(C1COC1)CC2    5.00 to 6.00
7       COc1ccc2c3c([nH]c2n1)CCN(C)CC3    6.00 to 7.00

====

UniProt:P28223: reported IC50 for various compounds.
measured attribute: IC50

In [3]: df
Out[3]:
                                    smi   system_tested  measured_attribute    value_observed
 0           Cc1ccc2c3c(n(C)c2n1)CCNCC3  UniProt:P28223                IC50  1000 to 10000 nM
 1  COc1ccc2c3c(n(C)c2n1)CCN(C1COC1)CC3  UniProt:P28223                IC50        > 10000 nM
 2       CN1CCc2c(n(C)c3ncc(Cl)cc23)CC1  UniProt:P28223                IC50    101 to 1000 nM
 3          Clc1cnc2[nH]c3c(c2c1)CCNCC3  UniProt:P28223                IC50    101 to 1000 nM
 4          Cn1c2c(c3ccc(Br)nc31)CCNCC2  UniProt:P28223                IC50    101 to 1000 nM
 5        Cc1ccc2c3c([nH]c2n1)CCN(C)CC3  UniProt:P28223                IC50  1000 to 10000 nM
 6             CN1CCc2[nH]c3ncccc3c2CC1  UniProt:P28223                IC50    101 to 1000 nM
 7        Cc1ccc2c3c(n(C)c2n1)CCN(C)CC3  UniProt:P28223                IC50  1000 to 10000 nM
 8  Brc1ccc2c3c([nH]c2n1)CCN(C1COC1)CC3  UniProt:P28223                IC50  1000 to 10000 nM
 9       COc1cc2c3c([nH]c2cn1)CCN(C)CC3  UniProt:P28223                IC50        > 10000 nM
10          COc1ccc2c3c([nH]c2n1)CCNCC3  UniProt:P28223                IC50    101 to 1000 nM
11   Cc1ccc2c3c(n(C)c2n1)CCN(C1COC1)CC3  UniProt:P28223                IC50        > 10000 nM
12         CN1CCc2[nH]c3ncc(Cl)cc3c2CC1  UniProt:P28223                IC50    101 to 1000 nM
13    c1cnc2[nH]c3c(c2c1)CCN(C1COC1)CC3  UniProt:P28223                IC50        > 10000 nM
14          Brc1ccc2c3c([nH]c2n1)CCNCC3  UniProt:P28223                IC50    101 to 1000 nM
15          Cn1c2c(c3cc(Cl)cnc31)CCNCC2  UniProt:P28223                IC50    101 to 1000 nM
16       COc1ccc2[nH]c3c(c2n1)CCN(C)CC3  UniProt:P28223                IC50    101 to 1000 nM
17          COc1ccc2c3c(n(C)c2n1)CCNCC3  UniProt:P28223                IC50    101 to 1000 nM
18   Cc1ccc2c3c([nH]c2n1)CCN(C1COC1)CC3  UniProt:P28223                IC50        > 10000 nM
19            c1cnc2[nH]c3c(c2c1)CCNCC3  UniProt:P28223                IC50    101 to 1000 nM
20         CN1CCc2[nH]c3nc(Br)ccc3c2CC1  UniProt:P28223                IC50  1000 to 10000 nM
21  COc1ccc2c3c([nH]c2n1)CCN(C1COC1)CC3  UniProt:P28223                IC50        > 10000 nM
22           Cc1ccc2c3c([nH]c2n1)CCNCC3  UniProt:P28223                IC50  1000 to 10000 nM
23              Cn1c2c(c3cccnc31)CCNCC2  UniProt:P28223                IC50    101 to 1000 nM
24  Clc1cnc2[nH]c3c(c2c1)CCN(C1COC1)CC3  UniProt:P28223                IC50  1000 to 10000 nM
25      Cn1c2c(c3cccnc31)CCN(C1COC1)CC2  UniProt:P28223                IC50        > 10000 nM
26  Cn1c2c(c3cc(Cl)cnc31)CCN(C1COC1)CC2  UniProt:P28223                IC50        > 10000 nM
27           CN1CCc2c(n(C)c3ncccc23)CC1  UniProt:P28223                IC50    101 to 1000 nM
28       COc1ccc2c3c([nH]c2n1)CCN(C)CC3  UniProt:P28223                IC50  1000 to 10000 nM
29       COc1ccc2c3c(n(C)c2n1)CCN(C)CC3  UniProt:P28223                IC50  1000 to 10000 nM

====

Target: 5-HT2A (Homo sapiens, UniProt P28223)
Sequence (P28223 whole entry): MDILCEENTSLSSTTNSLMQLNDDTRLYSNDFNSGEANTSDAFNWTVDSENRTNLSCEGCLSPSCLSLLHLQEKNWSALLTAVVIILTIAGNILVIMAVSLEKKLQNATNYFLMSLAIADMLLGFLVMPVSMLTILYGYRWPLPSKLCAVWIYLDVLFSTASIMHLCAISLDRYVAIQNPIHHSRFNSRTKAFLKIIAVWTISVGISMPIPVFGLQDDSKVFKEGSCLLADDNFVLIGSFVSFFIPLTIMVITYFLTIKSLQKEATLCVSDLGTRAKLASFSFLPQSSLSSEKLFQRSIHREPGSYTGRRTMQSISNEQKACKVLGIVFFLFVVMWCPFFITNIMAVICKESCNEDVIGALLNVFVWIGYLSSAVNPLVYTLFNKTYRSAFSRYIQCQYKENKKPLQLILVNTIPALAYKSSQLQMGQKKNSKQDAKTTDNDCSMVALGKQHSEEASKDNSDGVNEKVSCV
Experiment: Serotonin 5-HT2A in vitro cellular IPOne agonism assay
Settings: CHO-K1 cells, IPOne HTRF, 60 min
Experimental: Serotonin 5-HT2A In Vitro Cellular IPOne Agonism Assay. The 5-HT2A IPOne HTRF assay was performed at Epics Therapeutics S.A. (Belgium, FAST-0505I) using conventional methods. […] After addition of the lysis buffer containing IP1-d2 and anti-IP1 cryptate detection reagents, plates are incubated 1-hour at room temperature, and fluorescence ratios are measured according to the manufacturer specification, with the HTRF kit.
measured attribute: EC50

>>> df
                                    smi  measured_attribute    value_observed
 0       COc1ccc2[nH]c3c(c2n1)CCN(C)CC3                EC50    101 to 1000 nM
 1  Clc1cnc2[nH]c3c(c2c1)CCN(C1COC1)CC3                EC50  1000 to 10000 nM
 2        Cc1ccc2c3c([nH]c2n1)CCN(C)CC3                EC50  1000 to 10000 nM
 3             CN1CCc2[nH]c3ncccc3c2CC1                EC50    101 to 1000 nM
 4   Cc1ccc2c3c([nH]c2n1)CCN(C1COC1)CC3                EC50        > 10000 nM
 5          Cn1c2c(c3ccc(Br)nc31)CCNCC2                EC50      10 to 100 nM
 6  COc1ccc2c3c([nH]c2n1)CCN(C1COC1)CC3                EC50        > 10000 nM
 7           Cc1ccc2c3c([nH]c2n1)CCNCC3                EC50    101 to 1000 nM
 8    c1cnc2[nH]c3c(c2c1)CCN(C1COC1)CC3                EC50        > 10000 nM
 9         CN1CCc2[nH]c3ncc(Cl)cc3c2CC1                EC50    101 to 1000 nM
10          COc1ccc2c3c([nH]c2n1)CCNCC3                EC50      10 to 100 nM
